Sourced from BigSolDB 2.1

protocolConditions: in acetonitrile, 283.15 K

molecule | solubility (mole fraction)
O=C(O)c1cccc(O)c1O | 0.0101

----------
protocolConditions: in n-propyl acetate, 278.15 K
quantityKind: solubility (mole fraction)

molecule | measuredNumber
O=C(O)c1cccc(O)c1O | 0.0454

----------
protocolConditions: in ethyl acetate, 313.15 K

molecule | solubility (mole fraction)
O=C(O)c1cccc(O)c1O | 0.0719

----------
protocolConditions: in n-butanol, 313.15 K
quantityKind: solubility (mole fraction)

molecule | quantityKind | measuredNumber
O=C(O)c1cccc(O)c1O | solubility (mole fraction) | 0.0903

----------
protocolConditions: in n-propanol, 283.15 K
quantityKind: solubility (mole fraction)

molecule | result
O=C(O)c1cccc(O)c1O | 0.07

----------
protocolConditions: in ethanol, 298.15 K
quantityKind: solubility (mole fraction)

molecule | quantityKind | measuredNumber
O=C(O)c1cccc(O)c1O | solubility (mole fraction) | 0.0944

----------
protocolConditions: in acetone, 293.15 K
quantityKind: solubility (mole fraction)

molecule | result
O=C(O)c1cccc(O)c1O | 0.105

----------
protocolConditions: in acetonitrile, 318.15 K

molecule | solubility (mole fraction)
O=C(O)c1cccc(O)c1O | 0.0198

----------
protocolConditions: in isopropyl acetate, 308.15 K

molecule | solubility (mole fraction)
O=C(O)c1cccc(O)c1O | 0.0644

----------
protocolConditions: in isopentanol, 298.15 K

molecule | solubility (mole fraction)
O=C(O)c1cccc(O)c1O | 0.0709

----------
protocolConditions: in methyl acetate, 318.15 K

molecule | solubility (mole fraction)
O=C(O)c1cccc(O)c1O | 0.0764

----------
protocolConditions: in methyl acetate, 298.15 K

molecule | solubility (mole fraction)
O=C(O)c1cccc(O)c1O | 0.0594

----------
protocolConditions: in isopentanol, 318.15 K

molecule | solubility (mole fraction)
O=C(O)c1cccc(O)c1O | 0.0904

----------
protocolConditions: in methyl acetate, 308.15 K
quantityKind: solubility (mole fraction)

molecule | quantityKind | measuredNumber
O=C(O)c1cccc(O)c1O | solubility (mole fraction) | 0.0665

----------
protocolConditions: in isopropyl acetate, 278.15 K

molecule | solubility (mole fraction)
O=C(O)c1cccc(O)c1O | 0.0426

----------
protocolConditions: in n-butanol, 308.15 K
quantityKind: solubility (mole fraction)

molecule | quantityKind | measuredNumber
O=C(O)c1cccc(O)c1O | solubility (mole fraction) | 0.0853

----------
protocolConditions: in n-propyl acetate, 298.15 K
quantityKind: solubility (mole fraction)

molecule | result
O=C(O)c1cccc(O)c1O | 0.0564

----------
protocolConditions: in n-butanol, 293.15 K
quantityKind: solubility (mole fraction)

molecule | measuredNumber
O=C(O)c1cccc(O)c1O | 0.0737

----------
protocolConditions: in acetonitrile, 293.15 K
quantityKind: solubility (mole fraction)

molecule | result
O=C(O)c1cccc(O)c1O | 0.0115

----------
protocolConditions: in acetonitrile, 308.15 K
quantityKind: solubility (mole fraction)

molecule | measuredNumber
O=C(O)c1cccc(O)c1O | 0.0158

----------
protocolConditions: in isopropyl acetate, 293.15 K

molecule | solubility (mole fraction)
O=C(O)c1cccc(O)c1O | 0.0532

----------
protocolConditions: in ethanol, 308.15 K
quantityKind: solubility (mole fraction)

molecule | quantityKind | measuredNumber
O=C(O)c1cccc(O)c1O | solubility (mole fraction) | 0.101

----------
protocolConditions: in isopropyl acetate, 318.15 K

molecule | solubility (mole fraction)
O=C(O)c1cccc(O)c1O | 0.0728

----------
protocolConditions: in n-propyl acetate, 288.15 K

molecule | solubility (mole fraction)
O=C(O)c1cccc(O)c1O | 0.0504

----------
protocolConditions: in isopentanol, 293.15 K

molecule | solubility (mole fraction)
O=C(O)c1cccc(O)c1O | 0.067

----------
protocolConditions: in ethyl formate, 288.15 K
quantityKind: solubility (mole fraction)

molecule | quantityKind | measuredNumber
O=C(O)c1cccc(O)c1O | solubility (mole fraction) | 0.0258

----------
protocolConditions: in n-propyl acetate, 313.15 K

molecule | solubility (mole fraction)
O=C(O)c1cccc(O)c1O | 0.0672

----------
protocolConditions: in n-propyl acetate, 293.15 K

molecule | solubility (mole fraction)
O=C(O)c1cccc(O)c1O | 0.0534

----------
protocolConditions: in acetonitrile, 278.15 K

molecule | solubility (mole fraction)
O=C(O)c1cccc(O)c1O | 0.00923

----------
protocolConditions: in ethanol, 303.15 K
quantityKind: solubility (mole fraction)

molecule | quantityKind | measuredNumber
O=C(O)c1cccc(O)c1O | solubility (mole fraction) | 0.0973

----------
protocolConditions: in isopropanol, 283.15 K
quantityKind: solubility (mole fraction)

molecule | measuredNumber
O=C(O)c1cccc(O)c1O | 0.0727

----------
protocolConditions: in ethyl formate, 278.15 K

molecule | solubility (mole fraction)
O=C(O)c1cccc(O)c1O | 0.0232

----------
protocolConditions: in n-propanol, 308.15 K

molecule | solubility (mole fraction)
O=C(O)c1cccc(O)c1O | 0.0873

----------
protocolConditions: in ethanol, 278.15 K
quantityKind: solubility (mole fraction)

molecule | measuredNumber
O=C(O)c1cccc(O)c1O | 0.0838

----------
protocolConditions: in isopropanol, 293.15 K

molecule | solubility (mole fraction)
O=C(O)c1cccc(O)c1O | 0.0824

----------
protocolConditions: in n-propanol, 298.15 K
quantityKind: solubility (mole fraction)

molecule | measuredNumber
O=C(O)c1cccc(O)c1O | 0.0788

----------
protocolConditions: in isopropyl acetate, 313.15 K
quantityKind: solubility (mole fraction)

molecule | quantityKind | measuredNumber
O=C(O)c1cccc(O)c1O | solubility (mole fraction) | 0.0696

----------
protocolConditions: in n-butanol, 288.15 K
quantityKind: solubility (mole fraction)

molecule | measuredNumber
O=C(O)c1cccc(O)c1O | 0.0706

----------
protocolConditions: in isopropanol, 303.15 K
quantityKind: solubility (mole fraction)

molecule | measuredNumber
O=C(O)c1cccc(O)c1O | 0.0902

----------
protocolConditions: in ethanol, 288.15 K
quantityKind: solubility (mole fraction)

molecule | result
O=C(O)c1cccc(O)c1O | 0.0884

----------
protocolConditions: in n-propyl acetate, 303.15 K

molecule | solubility (mole fraction)
O=C(O)c1cccc(O)c1O | 0.0581

----------
protocolConditions: in ethanol, 283.15 K
quantityKind: solubility (mole fraction)

molecule | result
O=C(O)c1cccc(O)c1O | 0.0855

----------
protocolConditions: in ethyl formate, 293.15 K

molecule | solubility (mole fraction)
O=C(O)c1cccc(O)c1O | 0.0277

----------
protocolConditions: in methyl acetate, 303.15 K

molecule | solubility (mole fraction)
O=C(O)c1cccc(O)c1O | 0.0621

----------
protocolConditions: in methyl acetate, 288.15 K

molecule | solubility (mole fraction)
O=C(O)c1cccc(O)c1O | 0.0529

----------
protocolConditions: in n-propyl acetate, 318.15 K

molecule | solubility (mole fraction)
O=C(O)c1cccc(O)c1O | 0.0721

----------
protocolConditions: in isopentanol, 308.15 K

molecule | solubility (mole fraction)
O=C(O)c1cccc(O)c1O | 0.0803

----------
protocolConditions: in isopropyl acetate, 303.15 K

molecule | solubility (mole fraction)
O=C(O)c1cccc(O)c1O | 0.0602

----------
protocolConditions: in ethyl acetate, 278.15 K

molecule | solubility (mole fraction)
O=C(O)c1cccc(O)c1O | 0.0459

----------
protocolConditions: in isopentanol, 278.15 K

molecule | solubility (mole fraction)
O=C(O)c1cccc(O)c1O | 0.0569

----------
protocolConditions: in isopropyl acetate, 288.15 K
quantityKind: solubility (mole fraction)

molecule | measuredNumber
O=C(O)c1cccc(O)c1O | 0.0494

----------
protocolConditions: in n-butanol, 318.15 K

molecule | solubility (mole fraction)
O=C(O)c1cccc(O)c1O | 0.0952

----------
protocolConditions: in acetonitrile, 288.15 K
quantityKind: solubility (mole fraction)

molecule | measuredNumber
O=C(O)c1cccc(O)c1O | 0.0108

----------
protocolConditions: in ethyl formate, 313.15 K

molecule | solubility (mole fraction)
O=C(O)c1cccc(O)c1O | 0.0374

----------
protocolConditions: in acetone, 313.15 K

molecule | solubility (mole fraction)
O=C(O)c1cccc(O)c1O | 0.121

----------
protocolConditions: in n-butanol, 298.15 K
quantityKind: solubility (mole fraction)

molecule | result
O=C(O)c1cccc(O)c1O | 0.0766

----------
protocolConditions: in n-propanol, 313.15 K

molecule | solubility (mole fraction)
O=C(O)c1cccc(O)c1O | 0.0915

----------
protocolConditions: in ethyl formate, 318.15 K
quantityKind: solubility (mole fraction)

molecule | quantityKind | measuredNumber
O=C(O)c1cccc(O)c1O | solubility (mole fraction) | 0.0411

----------
protocolConditions: in n-propyl acetate, 308.15 K
quantityKind: solubility (mole fraction)

molecule | measuredNumber
O=C(O)c1cccc(O)c1O | 0.0615

----------
protocolConditions: in isopropyl acetate, 298.15 K

molecule | solubility (mole fraction)
O=C(O)c1cccc(O)c1O | 0.0568

----------
protocolConditions: in isopentanol, 313.15 K

molecule | solubility (mole fraction)
O=C(O)c1cccc(O)c1O | 0.0859
